pIC50 listing for selected compounds.
experimental-target: human orexin-1 receptor (Homo sapiens (Human), UniProt O43613)
Sequence (O43613 whole entry): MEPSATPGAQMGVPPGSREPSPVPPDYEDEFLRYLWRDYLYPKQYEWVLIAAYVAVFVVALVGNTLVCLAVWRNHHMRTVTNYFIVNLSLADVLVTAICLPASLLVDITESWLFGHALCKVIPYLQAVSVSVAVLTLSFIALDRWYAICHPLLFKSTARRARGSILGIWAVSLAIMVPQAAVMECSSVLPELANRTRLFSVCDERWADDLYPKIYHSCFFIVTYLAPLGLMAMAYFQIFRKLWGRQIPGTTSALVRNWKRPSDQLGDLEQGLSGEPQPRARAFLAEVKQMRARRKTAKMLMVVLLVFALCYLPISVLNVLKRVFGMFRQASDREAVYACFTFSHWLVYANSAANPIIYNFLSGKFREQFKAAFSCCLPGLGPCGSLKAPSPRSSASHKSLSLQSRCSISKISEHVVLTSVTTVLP
protocol-text: In vitro assay: intracellular calcium measurements (FLIPR), antagonistic activity
assay-context: CHO cells expressing human orexin-1 receptor, orexin-A agonist, geometric mean, read-out: IC50 Ox1
The value called pIC50 is obtained by taking minus log10 of the concentration in mol/L.

Cc1c(Cl)ccc2[nH]c([C@]3(C)CCCN3C(=O)c3ccccc3-n3cccn3)nc12    7.31
CO[C@@H]1C[C@@H](c2nc3ccc(Cl)c(C)c3[nH]2)N(C(=O)c2nc(C)sc2-c2ccc(C)cc2)C1    8.30

Query string: Quick one: pIC50 of "C=C1C[C@@H](c2nc3c(C)cc(C)cc3[nH]2)N(C(=O)c2nc(C)sc2-c2ccc(C)c(C)c2)C1" ?
Result string: 8.40

Query string: Quick one: pIC50 of "Cc1ccc(-n2cccn2)c(C(=O)N2CC[C@H](C)[C@H]2c2nc3cc(Cl)c(C)cc3[nH]2)c1" ?
Result string: 7.77

Query string: Quick one: pIC50 of "Cc1ccc(-c2nc(C)sc2C(=O)N2CC[C@H](C)[C@H]2c2nc3cc(C)c(C)cc3[nH]2)cc1" ?
Result string: 7.96

Query string: Quick one: pIC50 of "C=C1C[C@@H](c2nc3cc(Cl)c(C(F)(F)F)cc3[nH]2)N(C(=O)c2cc(OC)c(OC)cc2-n2nccn2)C1" ?
Result string: 7.57

Query string: Quick one: pIC50 of "COc1cc2nc([C@]3(C)CCCN3C(=O)c3cc(C)ccc3-n3nccn3)n(C)c2cc1OC" ?
Result string: 7.55

Query string: Quick one: pIC50 of "COc1cc2nc([C@]3(C)CCCN3C(=O)c3nc(C)sc3-c3ccc(Cl)cc3)[nH]c2cc1OC" ?
Result string: 7.37

Query string: Quick one: pIC50 of "Cc1ccc(-n2cccn2)c(C(=O)N2CCC[C@@]2(C)c2nc3cc(C(F)(F)F)c(Cl)cc3[nH]2)c1" ?
Result string: 8.70

Query string: Quick one: pIC50 of "Cc1ccc(-c2sc(C)nc2C(=O)N2CC[C@H](C)[C@H]2c2nc3c(Cl)cccc3[nH]2)cc1" ?
Result string: 8.10

====

experimental-target: human orexin-1 receptor (Homo sapiens (Human), UniProt O43613)
protocol-text: In vitro assay: intracellular calcium measurements (FLIPR), antagonistic activity
assay-context: CHO cells expressing human orexin-1 receptor, orexin-A agonist, geometric mean, read-out: IC50 Ox1
Experimental: In Vitro Assay: Intracellular Calcium Measurements: […] Within the Fluorescent Imaging Plate Reader (FLIPR Tetra, Molecular Devices), antagonists are added to the plate in a volume of 10 μl/well, incubated for 120 min and finally 10 μl/well of agonist is added. […] The calculated IC50 values may fluctuate depending on the daily cellular assay performance. […]
test-readout: IC50 (µM)
The reply should contain only the number, in µM.

Cc1ccc(-c2ccc(C)cc2C(=O)N2CCC[C@@]2(C)c2nc3cc(C)c(C)cc3n2CCF)cc1    0.023
COc1cccc(-c2sc(C)nc2C(=O)N2CCC[C@H]2c2nc3ccc(OC)cc3[nH]2)c1    0.692
Cc1ccc(-n2nccn2)c(C(=O)N2CC(F)(F)C[C@H]2c2nc3c(C)c(Cl)ccc3[nH]2)c1    0.052
Cc1nc(C(=O)N2CCCC2c2nc3c(C)c(Cl)ccc3[nH]2)c(-c2ccccc2)s1 (stereo not shown)    0.004
Cc1nc(C(=O)N2CC[C@H](C)[C@H]2c2nc3c(C(F)(F)F)cccc3[nH]2)c(-c2ccc(C)c(C)c2)s1    0.002
C=C1C[C@@H](c2nc3cc(Cl)c(C(F)(F)F)cc3[nH]2)N(C(=O)c2cc(OC(F)(F)F)ccc2-n2nccn2)C1    0.239

Query string: Quick one: IC50 of "Cc1ccc(C(=O)N2CCC[C@@]2(C)c2nc3c(C)c(Cl)ccc3[nH]2)c(-n2nccn2)c1" ?
Result string: 0.004

====

experimental-target: human orexin-2 receptor (Homo sapiens (Human))
protocol-text: In vitro assay: intracellular calcium measurements (FLIPR), antagonistic activity
assay-context: CHO cells expressing human orexin-2 receptor, orexin-A agonist, geometric mean, read-out: IC50 Ox2
Hi! Could you tag entries with IC50 below 200 nM as 1, and those at or above as -1? Much appreciated.

Cc1ccc(-c2ccccc2C)c(C(=O)N2CCC[C@@]2(C)c2nc3cc(C(F)(F)F)ccc3[nH]2)c1    -1

Query string: Please determine if "Cc1ccc(-c2ccc(F)cc2)c(C(=O)N2CCC[C@@]2(C)c2nc3c(C)c(C)ccc3[nH]2)c1" is below 200 nM in terms of IC50.
Result string: 1

Query string: Please determine if "C[C@@]1(c2nc3cc(C(F)(F)F)c(Cl)cc3[nH]2)CCCN1C(=O)c1cc(F)ccc1-n1nccn1" is below 200 nM in terms of IC50.
Result string: 1

Query string: Please determine if "Cc1ccc(C(=O)N2CC[C@H](C)[C@H]2c2nc3cc(Cl)c(C)cc3[nH]2)c(-n2nccn2)c1" is below 200 nM in terms of IC50.
Result string: 1

====

experimental-target: UniProt O43613
protocol-text: In vitro assay: intracellular calcium measurements (FLIPR), antagonistic activity
assay-context: CHO cells expressing human orexin-1 receptor, orexin-A agonist, geometric mean, read-out: IC50 Ox1
test-readout: log10 of IC50 (log10 of the value in nM)
Annotation: log10 of IC50, nM basis.

Cc1cc(C(=O)N2CCC[C@@]2(C)c2nc3c(F)c(F)ccc3[nH]2)c(-n2nccn2)cc1C [Ex. 5.199]    1.08

Next, consider the following compound.
Query string: Under UniProt O43613: log10 of IC50 value of COc1cccc2nc([C@@H]3CCCN3C(=O)c3nc(C)sc3-c3cccc(Cl)c3)[nH]c12 [Ex. 1.11] ?
Result string: 2.04

====

experimental-target: human orexin-2 receptor (Homo sapiens (Human), UniProt O43614)
Sequence (O43614 whole entry): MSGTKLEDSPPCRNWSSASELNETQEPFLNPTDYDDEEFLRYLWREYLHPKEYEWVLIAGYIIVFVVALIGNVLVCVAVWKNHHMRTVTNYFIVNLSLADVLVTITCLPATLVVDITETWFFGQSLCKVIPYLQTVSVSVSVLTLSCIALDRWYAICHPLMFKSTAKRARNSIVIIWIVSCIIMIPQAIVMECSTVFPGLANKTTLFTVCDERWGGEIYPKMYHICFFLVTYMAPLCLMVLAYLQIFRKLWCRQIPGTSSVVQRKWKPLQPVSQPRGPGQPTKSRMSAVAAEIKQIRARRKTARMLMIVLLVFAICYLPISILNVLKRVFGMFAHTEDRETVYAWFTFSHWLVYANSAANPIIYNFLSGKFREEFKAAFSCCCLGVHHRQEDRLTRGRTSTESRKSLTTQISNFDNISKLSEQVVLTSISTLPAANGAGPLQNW
protocol-text: In vitro assay: intracellular calcium measurements (FLIPR), antagonistic activity
assay-context: CHO cells expressing human orexin-2 receptor, orexin-A agonist, geometric mean, read-out: IC50 Ox2
test-readout: IC50 (nM)
The reply should contain only the number, in nM.

Some molecules with recorded IC50:
COc1cc2nc([C@]3(C)CCCN3C(=O)c3cc(C)ccc3-n3nccn3)n(CC3CC3)c2cc1OC [Ex. 7.47]    60
C=C1CC(c2nc3c(C)cccc3[nH]2)N(C(=O)c2nc(C3CC3)sc2-c2cccc(C)c2)C1 (stereo not drawn) [Ex. 6.94]    1
COc1ccc2nc([C@@H]3CCCN3C(=O)c3cc(OC)c(OC)cc3-n3nccn3)[nH]c2c1 [Ex. 1.162]    27
Cc1nc(C(=O)N2CCCC2c2nc3c(C)cccc3[nH]2)c(-c2ccccc2)s1 (stereo not drawn) [Ex. 1.123]    70
C=C1C[C@@H](c2nc3ccc(Cl)c(C)c3[nH]2)N(C(=O)c2nc(C)sc2-c2cccc(C(F)(F)F)c2)C1 [Ex. 6.120]    0.6

Query string: Quick one: IC50 of COc1ccc(-n2nccn2)c(C(=O)N2CC[C@H](C)[C@H]2c2nc3c(C)c(Cl)ccc3[nH]2)c1 [Ex. 4.66] ?
Result string: 23

Query string: Quick one: IC50 of Cc1nc(C(=O)N2CC[C@H](C)[C@H]2c2nc3c(C(F)(F)F)cccc3[nH]2)c(-c2ccc(C)c(C)c2)s1 [Ex. 4.152] ?
Result string: 40

====

experimental-target: human orexin-2 receptor (Homo sapiens (Human), UniProt O43614)
protocol-text: In vitro assay: intracellular calcium measurements (FLIPR), antagonistic activity
Format: cell-based
assay-context: CHO cells expressing human orexin-2 receptor, orexin-A agonist, geometric mean, read-out: IC50 Ox2
Experimental: In Vitro Assay: Intracellular Calcium Measurements: […] Within the Fluorescent Imaging Plate Reader (FLIPR Tetra, Molecular Devices), antagonists are added to the plate in a volume of 10 μl/well, incubated for 120 min and finally 10 μl/well of agonist is added. […] The calculated IC50 values may fluctuate depending on the daily cellular assay performance. […]
IC50 listing for selected molecules.
The reply should contain only the number, in nM.

Some molecules with recorded IC50:
Cc1c(Cl)ccc2[nH]c([C@]3(C)CCCN3C(=O)c3c(F)cccc3-c3ccccn3)nc12 [Ex. 5.221]    83
C=C1CC(c2nc3c(C)c(Cl)ccc3[nH]2)N(C(=O)c2cc(C)sc2-c2ccc(C)c(C)c2)C1 (stereo not shown) [Ex. 6.74]    11
CCn1c([C@]2(C)CCCN2C(=O)c2nc(C)sc2-c2cccc(Cl)c2)nc2c(C)cccc21 [Ex. 7.6]    6

Next, consider the following molecule.
Query string: Quick one: IC50 of Cc1ccc(-c2ncccn2)c(C(=O)N2CC[C@H](C)[C@H]2c2nc3cc(Cl)cc(C)c3[nH]2)c1 [Ex. 4.182] ?
Result string: 694
